- target of assay: T1, recombinant human bone morphogenetic protein-2 (rhBMP-2) (human, UniProt P12643 283-396)
- T1 construct: Amine-coupled to a CM-5 sensor chip
- T1 sequence (P12643 283-396 limits assumed): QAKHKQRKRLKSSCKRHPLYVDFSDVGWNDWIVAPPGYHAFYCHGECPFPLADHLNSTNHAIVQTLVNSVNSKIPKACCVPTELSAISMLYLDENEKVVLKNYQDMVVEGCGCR
- protocol text: SPR (Biacore X), ligand amine-coupled to CM-5 chip, Langmuir analysis
Bridges are numbered along the chain shown (N, C = ends). Where no end group is shown, it is not given here.
metric name: Kd

**Q:** Give its Kd value. Item: CRSTVRMSAEQVQNVWVRC (disulfide 1-19 (inferred), it is treated here as the same bovine cyclic peptide; also called cyclized BBP) [BMP Binding Peptide (BBP), cyclized synthetic 19 amino acid peptide]
**A:** 53.3 nM
